- experiment.summary: Single-dose MTD study
- Set-up: species or system mice
- experimental.conditions: mouse, in vivo, intravenous, topotecan-equivalent
reported.metric: MTD (mg/kg)
# value in mg/kg; strip the unit string

For the compound CC[C@@]1(O)C(=O)OCc2c1cc1n(c2=O)Cc2cc3c(CN(C)C)c(O)ccc3nc2-1 [topotecan] , give its measured MTD value.
20
